Data credit: patent US20040005537A1

Hi there, I'd appreciate the recorded Effects on Transcription Level: Aquaporin 7 for every entry that follows.
# Tested on: rat heart tissue
# EXPERIMENT_DESCRIPTION: GENECALLING differential gene expression analysis after dosing of serotonin modulating agents
# Format: in vivo, Sprague Dawley rats
# EXPERIMENTAL_PARAMETERS: CARDIOTOX 107, GenBank AB000507

Input line: What measured Effects on Transcription Level: Aquaporin 7 is associated with CC(C)CC(N(C)C)C1(c2ccc(Cl)cc2)CCC1 (stereo not drawn) [sibutramine] on rat heart tissue?
Output line: +1.6 fold

Input line: Also check CNS(=O)(=O)Cc1ccc2[nH]cc(CCN(C)C)c2c1 [sumatriptan]
Output line: +1.5 fold

Input line: Also check CCN[C@@H](C)Cc1cccc(C(F)(F)F)c1 [dexfenfluramine]
Output line: +1.5 fold

Input line: Also check CNCCC(Oc1ccc(C(F)(F)F)cc1)c1ccccc1 (stereo not drawn) [fluoxetine]
Output line: +1.8 fold

Input line: Also check CCNC(C)Cc1cccc(C(F)(F)F)c1 (stereo not drawn) [fenfluramine]
Output line: +1.5 fold

Input line: Also check CN1C[C@H](C(=O)N[C@]2(C)O[C@@]3(O)[C@@H]4CCCN4C(=O)[C@H](Cc4ccccc4)N3C2=O)C[C@@H]2c3cccc4[nH]cc(c34)C[C@H]21 [dihydroergotamine]
Output line: +1.7 fold
